The entries below come with measured inhibition at 10 µM values attached.
# method: HCV replicon assay (luciferase reporter, ET cell line)
# Type: cell-based
# assay-context: Hepatitis C virus, HCV replicon luciferase activity in ET cells

- molecule: "CC(=O)N(c1ccccc1)C1CCN(C(=O)c2nc3c(C(F)(F)F)cc(-c4ccoc4)cn3c2Cl)C1 (stereo not shown)"
  measurement-kind: "inhibition at 10 µM"
  experimental-value: "76%"
- molecule: "C[C@H](NC(=O)c1nc2c(C(F)(F)F)cc(-c3ccoc3)cn2c1Cl)c1ccccc1"
  measurement-kind: "inhibition at 10 µM"
  experimental-value: "85%"
- molecule: "O=C(c1nc2c(C(F)(F)F)cc(-c3ccoc3)cn2c1Cl)N1CCN(c2ccncc2)CC1"
  measurement-kind: "inhibition at 10 µM"
  experimental-value: "23.4%"

Per the record, O=C(c1nc2c(C(F)(F)F)cc(-c3ccoc3)cn2c1Cl)N1CC(NS(=O)(=O)c2cccc(F)c2)C1 has inhibition at 10 µM of 94.2%

The molecule identified as O=C(NCc1ccccc1C(F)(F)F)c1nc2c(C(F)(F)F)cc(-c3ccco3)cn2c1Cl registered its inhibition at 10 µM at 37.5%

Item: CN(C)CCNC(=O)[C@@H]1CN(C(=O)c2nc3c(C(F)(F)F)cc(-c4ccoc4)cn3c2Cl)C[C@H]1c1ccccc1 (stereo in doubt) | inhibition at 10 µM: 98.7%

Reported inhibition at 10 µM for O=C(c1nc2c(C(F)(F)F)cc(-c3ccco3)cn2c1Cl)N1CCCC1c1cccs1 (stereo not shown) was 97.3%
